- target: HLA-B*15:42
- protocol_summary: IEDB peptide-MHC binding, purified MHC/competitive/fluorescence; filed as Kd, often an IC50 or EC50 that approximates it; bounds were set here for any values at or beyond the usual limits of such assays
- experimental_setup: source organism: Mycobacterium tuberculosis F11
pKd: −log10 of the molar value.
quantity_measured: pKd

[Q] Request the reported pKd associated with FVAATGRPL
[A] ≤ 5.30

---

- target: HLA-A*02:06
- protocol_summary: IEDB peptide-MHC binding, purified MHC/competitive/fluorescence; filed as Kd, often an IC50 or EC50 that approximates it; bounds were set here for any values at or beyond the usual limits of such assays
- experimental_setup: source organism: Vibrio cholerae V52
quantity_measured: pKd
Worth noting: pKd values are minus log10 of concentrations stated in mol/L.

[Q] Find the recorded pKd belonging to TTILGLLPM and report it.
[A] 8.24

---

Assign pKd to each entry below.
- target: HLA-A*69:01
- protocol_summary: IEDB peptide-MHC binding, purified MHC/direct/fluorescence; filed as Kd, often an IC50 or EC50 that approximates it; bounds were set here for any values at or beyond the usual limits of such assays
- experimental_setup: source organism: Camelpox virus M-96
pKd: −log10 of the molar value.

[Q] Requested read-out pKd, target or system HLA-A*69:01, entry LLRDKDGVY
[A] ≤ 4.70

[Q] What reported pKd corresponds to WENGFKVVL on HLA-A*69:01?
[A] ≤ 4.70

---

- target: HLA-A*23:01
- protocol_summary: IEDB peptide-MHC binding, purified MHC/competitive/radioactivity; filed as Kd, often an IC50 or EC50 that approximates it; bounds were set here for any values at or beyond the usual limits of such assays
- experimental_setup: source organism: SARS coronavirus Tor2
Task for the reader: assign each of the following sequences its reported Kd.
Express the result in µM but write the number alone.

[Q] What value of Kd has been reported for the following sequence? VYKVYYGNAL
[A] 0.746

[Q] Any idea what Kd was measured for VFSAVGNICY ?
[A] 15.4

[Q] Using the record for YLALYNKYKY , report its Kd.
[A] 11.6

[Q] I am curious: what Kd value has been reported for SYREAACCHL ?
[A] 0.643

[Q] Report Kd for VMPVHTLSI please.
[A] 0.109

[Q] Kd lookup needed for LFLAFVVFL , thanks.
[A] 1.88

[Q] For the sequence shown here, TYASALWEI , give the reported Kd.
[A] 8.14

---

- target: HLA-A*02:11
- protocol_summary: IEDB peptide-MHC binding, purified MHC/competitive/fluorescence; filed as Kd, often an IC50 or EC50 that approximates it; bounds were set here for any values at or beyond the usual limits of such assays
- experimental_setup: source organism: Encephalitozoon cuniculi GB-M1
quantity_measured: Kd (nM)
Reply with just the number (in nM).

[Q] API: value(readout= Kd, system= HLA-A*02:11, query= ALEEGRKYV )
[A] 2.9

---

- target: HLA-B*27:03
- protocol_summary: IEDB peptide-MHC binding, purified MHC/direct/fluorescence; filed as Kd, often an IC50 or EC50 that approximates it; bounds were set here for any values at or beyond the usual limits of such assays
- experimental_setup: source organism: Burkholderia mallei ATCC 23344
pKd: −log10 of the molar value.
quantity_measured: pKd

[Q] Could you share what pKd was measured for LARFPCNVI , tested on HLA-B*27:03?
[A] ≤ 4.70
